- Test system: LPETG (Abz-LPETGK(Dnp)-CONH2)
- method: In vitro sortase kinetics HPLC assay, LPETG substrate
- Assay type: biochemical
- condition context: 1 mM LPETG; read-out: Km,GGG
A collection of molecules and their measured Km
The reply should be a number in µM, with the unit left off.

Field Km (entry eSrtA(4S-9): P94R, N98D, S102C, A104V, A118T, F122A, K134R, F144L, D160N, D165A, I182V, E189F, K190E, K196T (protein) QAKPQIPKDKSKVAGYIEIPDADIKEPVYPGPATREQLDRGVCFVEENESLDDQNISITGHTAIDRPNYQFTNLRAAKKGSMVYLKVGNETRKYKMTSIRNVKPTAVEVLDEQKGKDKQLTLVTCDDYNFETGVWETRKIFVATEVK ) reads 98000

More entries:
Field Km (entry eSrtA(2A-9): P94R, S102C, A104H, E105D, K138P, K152I, N160K, K162H, T164N, D165A, K173E, I182V, K190E, T196S (protein) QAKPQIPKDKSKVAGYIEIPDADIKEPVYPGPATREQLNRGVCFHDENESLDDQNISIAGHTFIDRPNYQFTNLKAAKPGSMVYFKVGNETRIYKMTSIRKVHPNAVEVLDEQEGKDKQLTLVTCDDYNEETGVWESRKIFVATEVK ) reads 585

Field Km (entry SrtA: wild-type Staphylococcus aureus sortase A (SEQ ID NO: 1) (protein, S. aureus) MKKWTNRLMTIAGVVLILVAAYLFAKPHIDNYLHDKDKDEKIEQYDKNVKEQASKDKKQQAKPQIPKDKSKVAGYIEIPDADIKEPVYPGPATPEQLNRGVSFAEENESLDDQNISIAGHTFIDRPNYQFTNLKAAKKGSMVYFKVGNETRKYKMTSIRDVKPTDVEVLDEQKGKDKQLTLITCDDYNEKTGVWEKRKIFVATEVK ) reads 211

Field Km (entry eSrtA (protein) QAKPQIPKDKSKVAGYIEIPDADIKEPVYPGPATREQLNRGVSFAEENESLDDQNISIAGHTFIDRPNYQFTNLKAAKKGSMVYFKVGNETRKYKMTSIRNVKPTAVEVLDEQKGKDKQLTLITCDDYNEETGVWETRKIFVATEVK ) reads 1620
